Target: PAR2 (HT-29 cells, trypsin activation) (Homo sapiens, UniProt P55085)
Construct: host or cells: HT-29 cells
Sequence (P55085 26-397): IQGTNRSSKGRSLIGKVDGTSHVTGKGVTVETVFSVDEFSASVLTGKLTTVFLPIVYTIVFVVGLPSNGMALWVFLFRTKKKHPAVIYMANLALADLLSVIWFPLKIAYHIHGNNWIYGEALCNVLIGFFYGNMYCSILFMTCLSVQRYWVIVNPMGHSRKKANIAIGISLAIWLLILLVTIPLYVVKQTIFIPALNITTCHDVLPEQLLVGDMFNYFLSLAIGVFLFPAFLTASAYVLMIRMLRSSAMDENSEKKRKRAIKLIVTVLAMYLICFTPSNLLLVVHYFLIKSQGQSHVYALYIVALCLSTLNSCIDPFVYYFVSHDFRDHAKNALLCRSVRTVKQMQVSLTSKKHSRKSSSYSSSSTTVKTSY
Assay: Ca FLIPR TETRA assay, ANTAGONIST mode, stimulation with 3.1 U/mL trypsin
Format: cell-based
Settings: HT-29 cells, antagonist mode, stimulation with 3.1 U/mL trypsin
IC50 values, listed per item
# unit: nM | format: bare number

Below: 8 molecules and their reported IC50.
[[record]]
molecule = "CC(C)(C)c1cc(-c2ccc(F)c(Cl)c2)nn2cc(C(=O)N3CCN(C(=O)[C@H]4C[C@@](C)(O)C4)CC3(C)C)nc12 [Compound I-460]"
measurement_label = "IC50"
unit_descriptor = "nM"
observed_value = 0.7

[[record]]
molecule = "Cc1nc(C(=O)N2CCN(C(=O)c3cn4nc(-c5ccc(C(F)(F)F)cc5)cc(C(C)C)c4n3)C(C)(C)C2)n[nH]1 [Compound I-413]"
measurement_label = "IC50"
unit_descriptor = "nM"
observed_value = 4.3

[[record]]
molecule = "CC(C)(C)c1cc(-c2ccc(F)cc2)nn2cc(C(=O)N3CCNC(=O)C3(C)C)nc12 [Compound I-191]"
measurement_label = "IC50"
unit_descriptor = "nM"
observed_value = 2.3

[[record]]
molecule = "CC(C)(C)c1cc(-c2ccc(Cl)cc2)nn2cc(C(=O)N3CCN(C(=O)c4ccccn4)CC3(C)C)nc12 [Compound I-444]"
measurement_label = "IC50"
unit_descriptor = "nM"
observed_value = 1.3

[[record]]
molecule = "CC(C)(C)C1CC(c2ccc(F)cc2)=Nn2cc(C(=O)N3CCNC(=O)C3(C)C)nc21 (stereo not shown) [Compound I-446]"
measurement_label = "IC50"
unit_descriptor = "nM"
observed_value = 104

[[record]]
molecule = "COC(=O)C1CC(C(=O)N2CCN(C(=O)c3cn4nc(-c5ccc(Cl)cc5)cc(C(C)C)c4n3)C(C)(C)C2)C1 (stereo not shown) [Compound I-544]"
measurement_label = "IC50"
unit_descriptor = "nM"
observed_value = 1.8

[[record]]
molecule = "CC(C)(C)c1cc(-c2ccc(F)cc2)nn2cc(C(=O)N3CCN(C(=O)c4ccn[nH]4)CC3(C)C)nc12 [Compound I-201]"
measurement_label = "IC50"
unit_descriptor = "nM"
observed_value = 0.9

[[record]]
molecule = "CC1(C(=O)O)CCC(C(=O)N2CCN(C(=O)c3cn4nc(-c5ccc(Cl)cc5)cc(C(C)(C)C)c4n3)C(C)(C)C2)CC1 (stereo not shown) [Compound I-534]"
measurement_label = "IC50"
unit_descriptor = "nM"
observed_value = 0.1


Could you share which IC50 value was measured for COC(=O)[C@H]1CC[C@@H](C(=O)N2CCN(C(=O)c3cn4nc(C(C)C)cc(C(C)C)c4n3)C(C)(C)C2)CC1 [Compound I-550] ?
1050

Endpoint output: IC50 of Cc1cc(-c2cc(C(C)C)c3nc(C(=O)N4CCN(c5c[nH]cn5)C(=O)C4(C)C)cn3n2)ccc1F [Compound I-388] . Value?
15.5

Would you mind telling me what IC50 value was observed for CC(C)(C)c1cc(-c2ccc(F)cc2)nn2cc(C(=O)N3CCN(C(=O)[C@H]4CC[C@@H](C(=O)O)CC4)CC3(C)C)nc12 [Compound I-493] ?
0.5

Recorded IC50 of C[C@@H]1CN(c2cc(-c3ccc(F)cc3)nn3cc(C(=O)N4CCN(C(=O)C(C)(C)O)CC4(C)C)nc23)C[C@H](C)O1 [Compound I-185] , please.
157

Which IC50 is listed for Cc1ccc(-c2cc(C(C)C)c3nc(C(=O)N4CCN(C(=O)c5cc(C)n[nH]5)CC4(C)C)cn3n2)cc1 [Compound I-330] ?
1.4
